- Test system: KM12 colon
- MEASUREMENT_PROTOCOL: NCI-60 one-dose screen, 48 h (100 = growth as untreated, 0 = no growth, -100 = all killed)
- PROTOCOL_CONDITIONS: 10 µM unless noted
The panel holds about 83,000 compounds, 20% with a hit somewhere; the sample as a whole holds those more often.
MEASURED_PARAMETER: growth (%)

| STRUCTURE_STRING | REPORTED |
| --- | --- |
| COc1ccc(NC(=S)N/N=C/c2ccccc2SSCCC(=O)OC[C@H]2O[C@H](O)[C@H](O)[C@@H](O)[C@@H]2O)cc1 | 63.3 |
| O=C1NC(=Nc2ccc(S(=O)(=O)Nc3nccs3)cc2)S/C1=C\c1coc2ccccc2c1=O | 113 |
| N#Cc1c(-c2ccco2)nc2c(c(-c3ccccc3)nn2-c2ccccc2)c1-c1ccc(O)cc1 | 43 |

---

- Tested on: UO-31 renal
- MEASUREMENT_PROTOCOL: NCI-60 one-dose screen, 48 h (100 = growth as untreated, 0 = no growth, -100 = all killed)
- PROTOCOL_CONDITIONS: 10 µM unless noted
This is part of a sample that, as a whole, favours compounds with a hit. Of some 83,000 tested, about 20% had one in any assay.
Outcome label depends on growth relative to 70%: at/above gives t, below gives f.

| COMPOUND | QUALITATIVE_LABEL |
| --- | --- |
| CCc1ccccc1NC(=O)c1sc2nc3c(cc2c1N)CCCC3 | f |
| Cc1cc(Cl)nc(N(CCCNc2ccnc3cc(Cl)ccc23)Cc2ccco2)n1 | f |
| Nc1c(C(=O)Nc2cccc(Cl)c2)sc2ncc(Cl)cc12 | t |
| CC(=O)O[C@H]1CC[C@]2(C)[C@H]3CC=C4[C@@H]5[C@H](C)[C@@H](C)CC[C@]5(C(=O)NCCNCCNCCN)CC[C@@]4(C)[C@]3(C)CC[C@H]2C1(C)C | f |
| CC1(C)c2ccccc2C(=O)C1(Br)Cc1ccccc1 (stereo not drawn) | f |
| Cc1cc(N2CCN(C)CC2)nc(N(CCNc2ccnc3cc(Cl)ccc23)Cc2ccco2)n1 | f |
| C=C1CC[C@@H](C(=O)OC)Cc2nc(C)ccc21 | t |

---

- Test system: HCT-116 colon
- MEASUREMENT_PROTOCOL: NCI-60 one-dose screen, 48 h
- PROTOCOL_CONDITIONS: 10 µM unless noted
This is part of a sample that, as a whole, favours compounds with a hit. Of some 83,000 tested, about 20% had one in any assay. The source made the active and inactive calls. Rule for the calls: active = growth percent below 10; inactive = the rest.
Outcomes: yes (1) for active, no (0) for inactive

| STRUCTURE_STRING | QUALITATIVE_LABEL |
| --- | --- |
| C#CCN=C[C@]12CC[C@@H](C(=C)C)[C@@H]1[C@H]1CC[C@@H]3[C@@]4(C)CCC(=O)C(C)(C)[C@@H]4CC[C@@]3(C)[C@]1(C)CC2 | no (0) |
| CC1=CC(=O)N(c2cccc3c(N4C(=O)C=C(C)C4=O)cccc23)C1=O | no (0) |
| Cc1cccc(C)c1NCc1nc(-c2ccccc2)n[nH]1 | no (0) |
| Oc1cc(/C=C/c2nc(N3CCOCC3)c3cc(Cl)c(Cl)cc3n2)cc(O)c1O | no (0) |
| O=[N+]([O-])c1ccc(N/N=C(\C(=N/Nc2ccc([N+](=O)[O-])cc2[N+](=O)[O-])c2ccccc2)c2ccccc2)c([N+](=O)[O-])c1 | no (0) |
| CCN1CCN(C(=O)[C@]23CCC(C)(C)C[C@@H]2C2=CC[C@@H]4[C@@]5(C)C/C(=C/c6ccncc6)C(=O)C(C)(C)[C@@H]5CC[C@@]4(C)[C@]2(C)CC3)CC1 | yes (1) |

---

- Test system: OVCAR-5 ovarian
- MEASUREMENT_PROTOCOL: NCI-60 one-dose screen, 48 h (100 = growth as untreated, 0 = no growth, -100 = all killed)
- PROTOCOL_CONDITIONS: 10 µM unless noted
The panel holds about 83,000 compounds, 20% with a hit somewhere; the sample as a whole holds those more often.
Recorded growth for the following compounds
MEASURED_PARAMETER: growth (%)

| COMPOUND | MEASURED_PARAMETER | REPORTED |
| --- | --- | --- |
| COc1ccc(-c2cc(/C=C/C(=O)c3ccc(OC)c(OC)c3)[nH]n2)cc1 | growth | 48.5 |
| O=S(=O)(NCCNc1cc(-c2cn(-c3ccccc3)nc2-c2cccc(O)c2)ccn1)c1ccc(C(F)(F)F)cc1 | growth | 62.7 |
| C=C(C)[C@@H]1CC[C@]2(C(=O)N3CCCNCC3)CC[C@]3(C)[C@H](CC[C@@H]4[C@@]5(C)CCC(=O)C(C)(C)[C@@H]5CC[C@]43C)[C@@H]12 | growth | 106 |
| CC1(C)CC[C@]2(C(=O)Nc3ccccn3)CC[C@]3(C)C(=CC[C@@H]4[C@@]5(C)C/C(=C/c6ccncc6)C(=O)C(C)(C)[C@@H]5CC[C@]43C)[C@@H]2C1 | growth | 75.5 |
| COc1ccc2nc(-c3c(-c4ccccc4)nc4ncccn34)[nH]c2c1 | growth | 97.9 |
| Cc1cc(N=O)cc(C(C)(C)C)c1O | growth | 108 |
| O=C(NC(Cc1cn(Cc2ccccc2)cn1)C(=O)O)OCC1c2ccccc2-c2ccccc21 (configuration not stated) | growth | 105 |
| O=c1[nH]ncc(Br)c1Br | growth | 115 |
| COc1ccc(OCC(CO)N2CCN(c3ccccc3)CC2)cc1 (configuration not stated) | growth | 103 |
| CC1=NN(c2ccc(S(=O)(=O)O)cc2Cl)C(=O)C1 | growth | 94.3 |
| Cc1ccc2c(c1)c1nc3cc(C)c(C)cc3nc1n2CCN(C)C | growth | 20.5 |
| CCCCCC1CCCCN1C(=O)OCC (configuration not stated) | growth | 94.7 |
| Cc1nn2c(-c3nc4cc(Cl)c(Cl)cc4[nH]3)c(-c3ccc(F)cc3)nc2s1 | growth | 23.8 |
| COc1ccc(NC(=O)c2ccc3c(c2)nc(-c2cc4ccccc4[nH]c2=O)n3-c2cc(C(C)(C)C)[nH]n2)cc1 | growth | 95.9 |
| COc1cc2c3c(c4c5ccccc5[nH]c4c2c(OC)c1OC)C(=O)N(O)C3=O | growth | 112 |
| Brc1ccc2c(c1)c(-c1nc(-c3c[nH]c4ncccc34)cs1)cn2CCCN1CCCCC1 | growth | 32.3 |
| Cc1ccc(-c2nc3ccc(Cl)cc3c(=O)n2N2C(=O)CSC2c2ccccc2Cl)cc1 (configuration not stated) | growth | 82.7 |

---

growth reference
- Tested on: CCRF-CEM leukemia
- MEASUREMENT_PROTOCOL: NCI-60 one-dose screen, 48 h (100 = growth as untreated, 0 = no growth, -100 = all killed)
- PROTOCOL_CONDITIONS: 10 µM unless noted
- Experimental: Growth inhibition of the CCRF-CEM human tumor cell line is measured as a screen for anti-cancer activity. Cells are grown in 96 well plates and exposed to the test compound for 48 hours. Compounds are tested at a single concentration, which is 10^-5 M for most compounds. The reported endpoint is percent growth (GI% or GIPRCNT), where numbers from 0 - 100% represent growth inhibition, and numbers from -100% - 0 represent cell death. For example, a value of 40 represents 60% growth inhibition. […]
Compounds without any hit were thinned out: in the full panel of roughly 83,000, 20% have a hit.

| COMPOUND | SYSTEM_UNDER_TEST | growth / % |
| --- | --- | --- |
| COc1cc(/C=N/NC(=S)NNC(=S)NC2CCCCC2)cc(OC)c1OC | CCRF-CEM leukemia | 88.7 |
| COc1cc2c(cc1-c1c(C)noc1C)ncc1nc(C3CCC(F)(F)CC3)n([C@@H](C)COC(F)F)c12 | CCRF-CEM leukemia | 50.8 |
| CC(=O)O[C@H]1CC[C@@]2(C)C(=CC[C@@H]3[C@@H]2CC[C@]2(C)C(=O)N(O)C(=O)C[C@@H]32)C1 | CCRF-CEM leukemia | 86 |
| Cc1ccc(-c2nc([P+](c3ccccc3)(c3ccccc3)c3ccccc3)c(N3C[C@H]4C[C@H](C3)c3cccc(=O)n3C4)o2)cc1 | CCRF-CEM leukemia | 78.4 |
| Cn1cc(-c2nc(-c3c[nH]c4ncccc34)cs2)c2cc(Br)ccc21 | CCRF-CEM leukemia | 58.9 |
| Cc1cc(C)n(Cc2cc(C(C)(C)C)cc(C(C)(C)C)c2)c(=O)c1C#N | CCRF-CEM leukemia | 87.9 |
| COc1cccc(-c2nn(-c3ccccc3)cc2-c2ccnc(NCCNS(=O)(=O)c3ccc(Cl)cc3)c2)c1 | CCRF-CEM leukemia | 15.3 |
| Cc1cc(C)nc(NC(N)=NCCc2ccccc2)n1 | CCRF-CEM leukemia | 45.3 |
| COc1ccccc1CNc1nc(N)nc2[nH]c3ccc(O)cc3c12 | CCRF-CEM leukemia | 44 |
| N#CC1=C(N)Oc2c(sc3c(F)cccc23)C1c1ccc(Cl)cc1 (stereo not drawn) | CCRF-CEM leukemia | 15.1 |
| O=[N+]([O-])c1cccc(/C=N\Nc2ccccc2)c1 | CCRF-CEM leukemia | 59.5 |
| Cc1ccc(Sc2sc(-c3ccccc3)nc2[P+](c2ccccc2)(c2ccccc2)c2ccccc2)cc1 | CCRF-CEM leukemia | 7.63 |
| Cc1ccc(/C=C(\C#N)c2cc3ccccc3n2C)cc1 | CCRF-CEM leukemia | 13.9 |

All values here come from PubChem BioAssay (NCI).
